Values from PubChem BioAssay (EPA / NIEHS)

- assay_overview: Tanguay_ZF_120hpf_SNOU_legacy: (Legacy) Oregon State University Tanguay Lab 120 Hour Post-fertilization zebrafish Assay for Snout Malformation (AID 2283637)
Results filed as inconclusive are left out. Activity calls are given as the source filed them. How the source made its calls: active means hit-call score of the fitted dose curve at least 0.9, where 1 is the maximum; inconclusive means response in the unintended direction; inactive means score below 0.9.
A correct response names exactly one class from label 1 = active, label 0 = inactive

These solved cases illustrate the format of a correct answer.
O=[N+]([O-])c1ccc(O)c([N+](=O)[O-])c1: label 0
CC(=O)[O][Hg][c]1ccccc1: label 0
O=c1[nH]c(=O)[nH]c(=O)[nH]1: label 0
Cc1ccccc1N: label 0
Oc1cccc2cccnc12: label 0
CCC(=O)C(CC(C)N(C)C)(c1ccccc1)c1ccccc1 (centres undefined): label 1
O=C(O)C(F)(F)C(F)(F)C(F)(F)C(F)(F)C(F)(F)C(F)(F)C(F)(F)C(F)(F)C(F)(F)C(F)(F)F: label 0
CC12CC1(C)C(=O)N(c1cc(Cl)cc(Cl)c1)C2=O (centres undefined): label 0

Lookup: Test call, this compound: "CCC(C)(C)c1ccc(O)c(C(C)(C)CC)c1"
Found: label 0

Lookup: Test call, this compound: "ClCC(Cl)CCl"
Found: label 0

Lookup: Test call, this compound: "NC(=O)O"
Found: label 0

Lookup: Test call, this compound: "CCN1CCC2(CC1)COc1cc3c(cc12)N(C(=O)c1ccc(-c2ccc(-c4nnc(C)o4)cc2C)cc1)CC3"
Found: label 0

Lookup: Test call, this compound: "O=C(O)C(Cl)(Cl)Cl"
Found: label 0

Lookup: Test call, this compound: "C=C(C)C(=O)[O][Sn]([CH2]CCC)([CH2]CCC)[CH2]CCC"
Found: label 0

* * *

- study_target: Estrogen receptor beta (Homo sapiens) (UniProt Q92731)
- Sequence (Q92731 whole entry, looked up): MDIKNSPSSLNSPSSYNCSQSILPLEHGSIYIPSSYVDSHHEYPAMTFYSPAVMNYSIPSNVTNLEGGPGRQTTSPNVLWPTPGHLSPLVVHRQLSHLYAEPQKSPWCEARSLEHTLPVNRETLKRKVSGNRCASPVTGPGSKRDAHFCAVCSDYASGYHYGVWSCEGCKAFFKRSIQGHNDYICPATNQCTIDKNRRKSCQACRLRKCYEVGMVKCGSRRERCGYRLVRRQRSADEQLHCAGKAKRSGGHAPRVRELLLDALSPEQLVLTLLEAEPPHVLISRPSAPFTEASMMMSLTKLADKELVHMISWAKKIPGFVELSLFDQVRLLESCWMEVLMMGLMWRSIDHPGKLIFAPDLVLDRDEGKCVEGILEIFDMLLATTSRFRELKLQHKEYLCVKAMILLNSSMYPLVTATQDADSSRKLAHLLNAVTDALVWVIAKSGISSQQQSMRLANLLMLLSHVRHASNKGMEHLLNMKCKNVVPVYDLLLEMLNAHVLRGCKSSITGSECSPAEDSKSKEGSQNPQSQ
- assay_overview: OT_ER_ERbERb_0480: Odyssey Thera (OT) 8-hour HEK293T Protein-Complementation Assay for Estrogen Receptor-beta/-beta Homodimer (AID 2283357);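 further: active means signal gain over DMSO baseline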
Records with an inconclusive call do not appear. Calls of active or inactive are those of the source. Rule for the calls: active = hit-call score of the fitted dose curve at least 0.9, where 1 is the maximum; inconclusive = response in the unintended direction; inactive = score below 0.9.
A correct response names exactly one class from True (active), False (inactive)

CCN1CCC2(CC1)COc1cc3c(cc12)N(C(=O)c1ccc(-c2ccc(-c4nnc(C)o4)cc2C)cc1)CC3: False
CC1(C)Cc2cccc(O)c2O1: False
C[C@H]1CCCC(=O)CCC/C=C/c2cc(O)cc(O)c2C(=O)O1: True

Consider the record given below.
Lookup: Test call, this compound: "Cc1ccc2ccccc2c1C"
Found: False

* * *

- Read-out: Intercellular Adhesion Molecule 1 (ICAM1), ICAM1 (gene 3383)
- assay_overview: LTEA_HepaRG_ICAM1: Life Technologies and Expression Analysis (LTEA) Assay for Intercellular Adhesion Molecule 1 (ICAM1) using HepaRG (AID 2283507)
- condition_description: mRNA level, 48 h; actives raise or lower the signal
Calls of active or inactive are those of the source. How the source made its calls: active means hit-call score of the fitted dose curve at least 0.9, where 1 is the maximum; inactive means score below 0.9.
A correct response names exactly one class from active, inactive

O=C(Nc1ccc2[nH]ccc2c1)c1cc2cc(F)ccc2n1Cc1cccc(F)c1: active
C[C@]12CCC(=O)C[C@@H]1CC[C@@H]1[C@@H]2CC[C@]2(C)[C@@H](O)CC[C@@H]12: inactive
CCCCCCCCc1ccc(O)cc1: inactive
O=C(O)C(F)(F)C(F)(F)C(F)(F)C(F)(F)C(F)(F)C(F)(F)F: inactive
CCOP(=S)(OCC)Oc1nc(Cl)c(Cl)cc1Cl: inactive
C[C@@H]1C[C@@H]([C@H](O)CC2CC(=O)NC(=O)C2)C(=O)[C@@H](C)C1: active

Lookup: Test call, this compound: "O=c1[nH]c(=O)[nH]c(=O)[nH]1"
Found: inactive

* * *

- study_target: Peroxisome proliferator-activated receptor gamma (Homo sapiens) (UniProt P37231)
- Sequence (P37231 whole entry, looked up): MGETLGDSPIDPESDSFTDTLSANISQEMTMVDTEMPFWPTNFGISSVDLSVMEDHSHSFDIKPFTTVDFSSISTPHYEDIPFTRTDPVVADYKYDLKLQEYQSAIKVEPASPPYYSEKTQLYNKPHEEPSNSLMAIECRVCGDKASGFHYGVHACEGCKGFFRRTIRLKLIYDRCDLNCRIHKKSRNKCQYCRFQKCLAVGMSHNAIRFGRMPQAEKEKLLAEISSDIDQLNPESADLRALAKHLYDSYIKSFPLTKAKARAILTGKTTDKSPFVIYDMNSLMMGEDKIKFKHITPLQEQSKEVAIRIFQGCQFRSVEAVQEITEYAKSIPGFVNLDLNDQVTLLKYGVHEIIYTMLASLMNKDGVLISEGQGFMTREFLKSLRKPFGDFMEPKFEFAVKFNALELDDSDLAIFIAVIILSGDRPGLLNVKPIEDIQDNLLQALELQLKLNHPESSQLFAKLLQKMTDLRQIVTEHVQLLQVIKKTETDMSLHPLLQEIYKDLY
- assay_overview: ATG_hPPARg_XSP2: Attagene TRANS-FACTORIAL Multi-Species (XSP2) HepG2 Assay for human Peroxisome Proliferator-activated Receptor gamma (PPARg) (AID 2283829);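 further: actives raise reporter mRNA above DMSO so AC50 reflects PPARg activation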
Results filed as inconclusive are left out. Active and inactive are the calls of the source. The calls were made as follows: active = hit-call score of the fitted dose curve at least 0.9, where 1 is the maximum; inconclusive = response in the unintended direction; inactive = score below 0.9.
measured_attribute: AC50

CC12CC1(C)C(=O)N(c1cc(Cl)cc(Cl)c1)C2=O (stereo unspecified): inactive
CC1(C)CCC(Cc2ccc(Cl)cc2)C1(O)Cn1cncn1 (stereo unspecified): inactive
CC(=O)C=C(C)C: inactive
COP(=O)(OC)O/C(=C\Cl)c1cc(Cl)c(Cl)cc1Cl: 15 µM (active)
C[C@H]1CCCC(=O)CCC/C=C/c2cc(O)cc(O)c2C(=O)O1: inactive

--- query ---
Lookup: Field request: AC50 | item: "C[C@]12CCC(=O)C[C@@H]1CC[C@@H]1[C@@H]2CC[C@]2(C)[C@@H](O)CC[C@@H]12"
Found: inactive

* * *

- Tested on: Thyroperoxidase (TPO), gene 54314
- assay_overview: CCTE_Simmons_AUR_rTPO: CCTE's Amplex UltraRed Assay for Thyroperoxidase (TPO) Inhibition, Simmons Lab (AID 2283662)
Active and inactive are the calls of the source. The calls were made as follows: active = hit-call score of the fitted dose curve at least 0.9, where 1 is the maximum; inconclusive = response in the unintended direction; inactive = score below 0.9.
A correct response names exactly one class from active, inactive

These solved cases illustrate the format of a correct answer.
OCc1ccco1: active
CC12CC1(C)C(=O)N(c1cc(Cl)cc(Cl)c1)C2=O (stereo not drawn): inactive
CCOP(=S)(OCC)Oc1nc(Cl)c(Cl)cc1Cl: active
CC1(C)CCC(Cc2ccc(Cl)cc2)C1(O)Cn1cncn1 (stereo not drawn): inactive
CCCCCCCCc1ccc(O)cc1: active

Lookup: Test call, this compound: "Cc1ccc2ccccc2c1C"
Found: active

Lookup: Test call, this compound: "CCCCCCCCSC(=O)Oc1cc(Cl)nnc1-c1ccccc1"
Found: active

* * *

- study_target: Cellular tumor antigen p53 (Homo sapiens) (UniProt P04637)
- Sequence (P04637 whole entry, looked up): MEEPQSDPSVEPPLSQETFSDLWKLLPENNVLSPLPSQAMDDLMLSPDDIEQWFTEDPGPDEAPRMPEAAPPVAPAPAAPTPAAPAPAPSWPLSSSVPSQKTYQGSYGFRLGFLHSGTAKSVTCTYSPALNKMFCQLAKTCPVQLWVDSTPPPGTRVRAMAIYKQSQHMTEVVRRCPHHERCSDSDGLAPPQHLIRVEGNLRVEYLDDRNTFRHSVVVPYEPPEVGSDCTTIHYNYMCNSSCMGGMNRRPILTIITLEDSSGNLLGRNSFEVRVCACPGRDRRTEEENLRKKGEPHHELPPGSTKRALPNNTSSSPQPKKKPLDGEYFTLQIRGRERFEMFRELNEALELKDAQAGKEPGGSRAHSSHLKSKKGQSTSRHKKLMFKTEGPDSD
- assay_overview: TOX21_p53_BLA_p2_ratio: Tox21 HCT-116 p53 Agonism Beta-lactamase Assay, Ratio, Phase 2 (AID 2283592)
- Description: TOX21_p53_BLA_p2 is a cell-based, single-readout assay that uses HCT116, a human intestinal cell line, […] in a 1536-well plate.TOX21_p53_BLA_p2_ratio is an assay readout measuring reporter gene via receptor activity and designed using inducible reporter (beta lactamase induction) detected with GAL4 b-lactamase reporter gene. […] This assay endpoint, TOX21_p53_BLA_p2_ratio, was analyzed in the positive analysis fitting direction relative to DMSO as the negative control and baseline of activity. […]
Inconclusive results are not listed. Activity calls are given as the source filed them. Rule for the calls: active = hit-call score of the fitted dose curve at least 0.9, where 1 is the maximum; inconclusive = response in the unintended direction; inactive = score below 0.9.
A correct response names exactly one class from active, inactive

These solved cases illustrate the format of a correct answer.
COc1ccccc1OC: inactive
CC(=O)c1cc(C(C)(C)C)cc2c1CCC2(C)C: inactive
Cl/C=C\C[N+]12CN3CN(CN(C3)C1)C2: inactive
ClCc1cccnc1: inactive
CCN1CCC2(CC1)COc1cc3c(cc12)N(C(=O)c1ccc(-c2ccc(-c4nnc(C)o4)cc2C)cc1)CC3: active
OCC(O)CCl (stereo not drawn): inactive
C[C@]12CCC(=O)C[C@@H]1CC[C@@H]1[C@@H]2CC[C@]2(C)[C@@H](O)CC[C@@H]12: inactive
CCCCP(CCCC)CCCC: inactive
NC(=O)CF: inactive
CC(C)C1CCC(Cc2ccc(Cl)cc2)C1(O)Cn1cncn1 (stereo not drawn): active

Lookup: Test call, this compound: "C(=NC1CCCCC1)=NC1CCCCC1"
Found: inactive

Lookup: Test call, this compound: "O=c1[nH]c(=O)[nH]c(=O)[nH]1"
Found: inactive

Lookup: Test call, this compound: CCCCC(CC)CO[N+](=O)[O-] (stereo not drawn)
Found: inactive

* * *

- Read-out: Tissue Factor, F3 (gene 2152)
- assay_overview: BSK_CASM3C_TissueFactor: BioMAP Diversity Plus: CASM3C Assay for Tissue Factor Biomarker Activity (AID 2283052);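 further: cell surface tissue factor protein level read by ELISA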
- condition_description: primary human coronary artery smooth muscle cells; actives raise or lower the signal
Calls of active or inactive are those of the source. How the source made its calls: active means hit-call score of the fitted dose curve at least 0.9, where 1 is the maximum; inactive means score below 0.9.
A correct response names exactly one class from yes = active, no = inactive

Lookup: Test call, this compound: CC12CC1(C)C(=O)N(c1cc(Cl)cc(Cl)c1)C2=O (configuration not stated)
Found: no

* * *

- assay_overview: ATG_ERE_CIS: Attagene CIS-FACTORIAL HepG2 Assay for Estrogen Response Element (ERE) (AID 2282940)
- condition_description: HepG2 ERE cis-reporter, Attagene RNA transcript; actives raise or lower the signal
The source made the active and inactive calls. The calls were made as follows: active = hit-call score of the fitted dose curve at least 0.9, where 1 is the maximum; inactive = score below 0.9.
A correct response names exactly one class from yes for active, no for inactive

These solved cases illustrate the format of a correct answer.
CC(C)c1cccc(C(C)C)c1O: no
CCN1CCC2(CC1)COc1cc3c(cc12)N(C(=O)c1ccc(-c2ccc(-c4nnc(C)o4)cc2C)cc1)CC3: no
Cl/C=C\C[N+]12CN3CN(CN(C3)C1)C2: no

Lookup: Test call, this compound: "COP(=S)(OC)Oc1ccc(Sc2ccc(OP(=S)(OC)OC)cc2)cc1"
Found: no

Lookup: Test call, this compound: "O=[N+]([O-])c1c(Cl)c(Cl)cc(Cl)c1Cl"
Found: no

Lookup: Test call, this compound: "NC(=S)Nc1ccccc1"
Found: yes

Lookup: Test call, this compound: "COP(=S)(OC)Oc1c(Cl)cc(C)cc1Cl"
Found: yes

Lookup: Test call, this compound: "C=C(C)C#N"
Found: no

Lookup: Test call, this compound: "CC(=O)[O][Hg][c]1ccccc1"
Found: no

Lookup: Test call, this compound: CNC(=O)O/N=C/C(C)(C)S(C)=O (centres undefined)
Found: yes

Lookup: Test call, this compound: "C=CC#N"
Found: yes

Lookup: Test call, this compound: "COC(=O)c1sccc1S(=O)(=O)NC(=O)Nc1nc(C)nc(OC)n1"
Found: yes

Lookup: Test call, this compound: "CCCCOCCOC(C)=O"
Found: no

Lookup: Test call, this compound: "CCOC(=O)Nc1cccc(OC(=O)Nc2ccccc2)c1"
Found: no
